Each recorded value in this set is attributed to patent US20070224198A1.

target: Recombinant human Factor IX (rhFIX, Genetics Institute) (human, UniProt P00740 47-461); test: titration calorimetry, calculated for 25 C by the van't Hoff equation, 10 mM CaCl2
Sequence (P00740 47-461 limits assumed): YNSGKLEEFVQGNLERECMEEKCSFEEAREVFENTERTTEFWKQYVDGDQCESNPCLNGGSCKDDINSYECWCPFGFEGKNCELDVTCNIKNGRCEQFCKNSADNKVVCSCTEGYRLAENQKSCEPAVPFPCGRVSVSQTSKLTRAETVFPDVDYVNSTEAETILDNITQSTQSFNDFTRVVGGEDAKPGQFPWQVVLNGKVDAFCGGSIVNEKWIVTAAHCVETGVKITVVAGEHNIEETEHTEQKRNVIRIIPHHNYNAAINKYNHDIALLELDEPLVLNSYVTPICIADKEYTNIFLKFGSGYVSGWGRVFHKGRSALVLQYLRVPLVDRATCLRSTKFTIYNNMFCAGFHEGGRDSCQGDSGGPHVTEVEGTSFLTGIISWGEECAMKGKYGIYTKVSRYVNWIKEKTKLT
For each of the binders below, state its Kd.
Give just the number in nM; leave the unit off.

Sample humanized anti-human Factor IX monoclonal antibody SB 249415 (antibody, human IgG1, V domains shown, Human IgG1 and kappa constant regions from the vectors; also called F9HZHC 1-1 / F9HZLC 1-1) VH: QVQLVQSGSELKKPGASVKVSCKASGYTFTNYGMNWVRQAPGQGLKWMGWINTRNGKSTYVDDFKGRFVFSLDSSVSTAYLQISSLKADDTAVYYCTREGNMDGYFPFTYWGQGTLVTVSS VL: EIVLTQSPATLSLSPGERATLSCRASSSVNYMHWYQQRPGQAPKPWIYATSNLASGVPARFSGSGSGTDFTLTISSLEPEDFAVYYCQQWSINPRTFGGGTKVEIKR — what was its Kd?
3

Now this one: humanized anti-human Factor IX monoclonal antibody SB 249413 (antibody, human IgG1, V domains shown, also called F9HZHC 1-0 / F9HZLC 1-0) VH: QVQLVQSGSELKKPGASVKVSCKASGYTFTNYGMNWVRQAPGQGLEWMGWINTRNGKSTYVDDFKGRFVFSLDTSVSTAYLQISSLKADDTAVYYCAREGNMDGYFPFTYWGQGTLVTVSS VL: EIVLTQSPATLSLSPGERATLSCRASSSVNYMHWYQQRPGQAPRLLIYATSNLASGIPARFSGSGSGTDFTLTISSLEPEDFAVYYCQQWSINPRTFGGGTKVEIKR
6
